- Measured target: Stromelysin-1 (Homo sapiens)
- Sequence (P08254 whole entry): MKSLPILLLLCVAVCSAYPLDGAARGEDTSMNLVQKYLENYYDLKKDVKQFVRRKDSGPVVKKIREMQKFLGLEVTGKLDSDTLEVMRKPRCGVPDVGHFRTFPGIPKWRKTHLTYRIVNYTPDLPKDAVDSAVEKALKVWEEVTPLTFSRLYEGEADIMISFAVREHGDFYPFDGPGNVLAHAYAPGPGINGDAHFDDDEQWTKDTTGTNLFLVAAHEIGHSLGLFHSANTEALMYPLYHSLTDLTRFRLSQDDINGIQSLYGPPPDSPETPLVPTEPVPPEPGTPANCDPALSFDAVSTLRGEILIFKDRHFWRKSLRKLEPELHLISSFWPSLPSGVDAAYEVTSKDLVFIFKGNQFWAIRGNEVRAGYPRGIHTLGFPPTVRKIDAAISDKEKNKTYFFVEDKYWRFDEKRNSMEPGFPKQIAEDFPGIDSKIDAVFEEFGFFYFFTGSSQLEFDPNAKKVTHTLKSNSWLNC
- Experiment summary: Inhibition of recombinant matrix metalloprotease-3 (MMP-3)
Observed property: Ki (µM)
One number for each entry, in µM.

Q. If you can, please state the reported Ki value of CC(=O)N1CCC[C@H]1C(=O)NCCCCP(=O)(O)C[C@@H](CCc1ccccc1)C(=O)N[C@H](CC(C)C)C(=O)Nc1ccccc1 .
A. 0.062

====

- Measured target: Interstitial collagenase (Homo sapiens, UniProt P03956)
- Sequence (P03956 whole entry): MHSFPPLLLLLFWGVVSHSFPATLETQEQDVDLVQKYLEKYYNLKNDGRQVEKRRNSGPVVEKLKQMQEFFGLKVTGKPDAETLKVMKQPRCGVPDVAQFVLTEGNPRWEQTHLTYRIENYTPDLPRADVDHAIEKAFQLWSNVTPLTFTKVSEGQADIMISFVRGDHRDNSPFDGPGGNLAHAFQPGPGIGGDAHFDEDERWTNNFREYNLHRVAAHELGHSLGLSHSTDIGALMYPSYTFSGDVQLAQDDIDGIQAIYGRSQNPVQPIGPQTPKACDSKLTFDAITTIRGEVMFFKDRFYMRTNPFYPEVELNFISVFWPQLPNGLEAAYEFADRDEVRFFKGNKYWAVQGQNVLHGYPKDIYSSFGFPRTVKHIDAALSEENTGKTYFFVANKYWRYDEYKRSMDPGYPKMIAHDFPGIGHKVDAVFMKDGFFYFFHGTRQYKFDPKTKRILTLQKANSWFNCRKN
- Experiment summary: Inhibitory activity against recombinant matrix metalloprotease-1 (MMP-1).
pIC50: −log10 of the molar value.
Kind request: treat 6 as inclusive, so pIC50 at 6 or higher is rule met, anything lower is rule not met.

Q. API: above_or_equal(metric=pIC50, cutoff=6) for item CC(C)CC(CP(=O)(O)Cc1ccc(Cc2ccccc2)cc1)C(=O)NC(CO)C(C)(C)C (stereo not given)
A. rule not met

Q. Could you please find out whether CNC(=O)[C@H](NC(=O)C(CC(C)C)CP(=O)(O)Cc1ccc(Cc2ccccc2)cc1)C(C)(C)C (stereo not given in full) has pIC50 that meets 6 or exceeds it?
A. rule met

Q. Is the recorded value of pIC50 equal to or greater than 6 for this molecule? CNC(=O)[C@@H](C)NC(=O)C(CC(C)C)CP(=O)(O)Cc1ccc(Cc2ccccc2)cc1 (stereo not given in full)
A. rule not met

Q. Hi, just wondering whether CNC(=O)[C@H](NC(=O)C(CCC(F)(F)F)CP(=O)(O)Cc1ccc(Cc2ccccc2)cc1)C(C)(C)C (stereo not given in full) shows pIC50 of 6 or higher.
A. rule met

Q. Please indicate if the recorded pIC50 for CNC(=O)[C@H](NC(=O)C(CCCCOc1ccccc1)CP(=O)(O)Cc1ccc(Cc2ccccc2)cc1)C(C)(C)C (stereo not given in full) meets or exceeds 6.
A. rule not met

Q. Is pIC50 at least 6? Consider CNC(=O)[C@H](NC(=O)C(CCC(C)C)CP(=O)(O)Cc1ccc(Cc2ccccc2)cc1)C(C)(C)C (stereo not given in full)
A. rule not met

Q. Can CC(C)CC(CP(=O)(O)Cc1ccc(Cc2ccccc2)cc1)C(=O)NCC(C)(C)C (stereo not given) be said to have pIC50 at or above 6?
A. rule not met

Q. Determine whether this molecule has pIC50 no lower than 6: CNC(=O)[C@@H](Cc1ccc(OC)cc1)NC(=O)C(CC(C)C)CP(=O)(O)Cc1ccc(C(=O)NCc2ccccc2)cc1 (stereo not given in full)
A. rule not met

Q. Evaluate CNC(=O)[C@H](NC(=O)C(CC1CCCCC1)CP(=O)(O)Cc1ccc(Cc2ccccc2)cc1)C(C)(C)C (stereo not given in full) : pIC50 at minimum 6?
A. rule not met

Q. Test whether the molecule CNC(=O)[C@H](NC(=O)C(CCC1CCCCC1)CP(=O)(O)Cc1ccc(Cc2ccccc2)cc1)C(C)(C)C (stereo not given in full) records pIC50 of 6 or higher.
A. rule not met

Q. Can CNC(=O)[C@H](NC(=O)C(CC1CC1)CP(=O)(O)Cc1ccc(Cc2ccccc2)cc1)C(C)(C)C (stereo not given in full) be said to have pIC50 at or above 6?
A. rule met

Q. Given CNC(=O)[C@H](NC(=O)C(CCc1ccccc1)CP(=O)(O)Cc1ccccc1)C(C)(C)C (stereo not given in full) , state whether its pIC50 is at least 6.
A. rule not met

Q. hey, is pIC50 for this one >= 6? CNC(=O)[C@H](NC(=O)C(CC1CCC1)CP(=O)(O)Cc1ccc(Cc2ccccc2)cc1)C(C)(C)C (stereo not given in full)
A. rule met
